Assay: molar heat capacity at constant pressure
Details: 355.15 K; 101.33 kPa; Liquid; Small sample (50 mg) DSC
Label key: yes means molar heat capacity at constant pressure under 500 J/K/mol; no means molar heat capacity at constant pressure of 500 J/K/mol or more.

Qu. Hello, is molar heat capacity at constant pressure of the following molecule strictly smaller than 500 J/K/mol? CCCCn1cc[n+](C)c1.O=S(=O)([O-])C(F)(F)F [1-butyl-3-methylimidazolium trifluoromethanesulfonate]
Ans. yes

Turning now to a further record.
Qu. Hello, is molar heat capacity at constant pressure of the following molecule strictly smaller than 500 J/K/mol? CCn1cc[n+](C)c1.O=S(=O)([O-])C(F)(F)F [1-ethyl-3-methylimidazolium trifluoromethanesulfonate]
Ans. yes

====

Assay: molar heat capacity at constant pressure
Conditions: 395.15 K; 101.33 kPa; Liquid; Small sample (50 mg) DSC
Label key: true means molar heat capacity at constant pressure under 600 J/K/mol; false means molar heat capacity at constant pressure of 600 J/K/mol or more.

Qu. Hello, is molar heat capacity at constant pressure of the following compound strictly smaller than 600 J/K/mol? CCCCCCCCn1cc[n+](C)c1.O=S(=O)([O-])C(F)(F)F [1-octyl-3-methylimidazolium trifluoromethanesulfonate]
Ans. false

Qu. Hello, is molar heat capacity at constant pressure of the following compound strictly smaller than 600 J/K/mol? CCn1cc[n+](C)c1.O=S(=O)([O-])C(F)(F)F [1-ethyl-3-methylimidazolium trifluoromethanesulfonate]
Ans. true

Qu. Hello, is molar heat capacity at constant pressure of the following compound strictly smaller than 600 J/K/mol? CCCCCC[n+]1ccn(C)c1.O=S(=O)([N-]S(=O)(=O)C(F)(F)F)C(F)(F)F
Ans. false

New cases:
Qu. Hello, is molar heat capacity at constant pressure of the following compound strictly smaller than 600 J/K/mol? CCCC[n+]1ccccc1.O=S(=O)([N-]S(=O)(=O)C(F)(F)F)C(F)(F)F [1-butylpyridinium bis[(trifluoromethyl)sulfonyl]imide]
Ans. false

Qu. Hello, is molar heat capacity at constant pressure of the following compound strictly smaller than 600 J/K/mol? CCCCCCn1cc[n+](C)c1.O=S(=O)([O-])C(F)(F)F [1-hexyl-3-methylimidazolium trifluoromethanesulfonate]
Ans. true

Qu. Hello, is molar heat capacity at constant pressure of the following compound strictly smaller than 600 J/K/mol? CCCCn1cc[n+](C)c1.O=S(=O)([O-])C(F)(F)F [1-butyl-3-methylimidazolium trifluoromethanesulfonate]
Ans. true

====

Assay: molar heat capacity at constant pressure
Conditions: 330.15 K; 101.33 kPa; Liquid; Small sample (50 mg) DSC
Reported molar heat capacity at constant pressure is given for each of the following compounds.
Answer in J/K/mol, number only, no unit symbol.

Completed entries (count: 3):
Qu. Indicate its recorded molar heat capacity at constant pressure; the compound in question is CCCC[n+]1ccccc1.O=S(=O)([N-]S(=O)(=O)C(F)(F)F)C(F)(F)F [1-butylpyridinium bis[(trifluoromethyl)sulfonyl]imide]
Ans. 587

Qu. Indicate its recorded molar heat capacity at constant pressure; the compound in question is CCCCCC[n+]1ccn(C)c1.O=S(=O)([N-]S(=O)(=O)C(F)(F)F)C(F)(F)F
Ans. 679

Qu. Indicate its recorded molar heat capacity at constant pressure; the compound in question is CCCCCCCCn1cc[n+](C)c1.O=S(=O)([O-])C(F)(F)F [1-octyl-3-methylimidazolium trifluoromethanesulfonate]
Ans. 612

Alright, here's another compound for you.
Qu. Indicate its recorded molar heat capacity at constant pressure; the compound in question is c1ccccc1 [benzene]
Ans. 144.15
